Hello, the source for this data is patent US7214669B2, in case you need it.

Molecular target: Human recombinant MMP1 (Homo sapiens, UniProt P03956)
Sequence (P03956 100-469): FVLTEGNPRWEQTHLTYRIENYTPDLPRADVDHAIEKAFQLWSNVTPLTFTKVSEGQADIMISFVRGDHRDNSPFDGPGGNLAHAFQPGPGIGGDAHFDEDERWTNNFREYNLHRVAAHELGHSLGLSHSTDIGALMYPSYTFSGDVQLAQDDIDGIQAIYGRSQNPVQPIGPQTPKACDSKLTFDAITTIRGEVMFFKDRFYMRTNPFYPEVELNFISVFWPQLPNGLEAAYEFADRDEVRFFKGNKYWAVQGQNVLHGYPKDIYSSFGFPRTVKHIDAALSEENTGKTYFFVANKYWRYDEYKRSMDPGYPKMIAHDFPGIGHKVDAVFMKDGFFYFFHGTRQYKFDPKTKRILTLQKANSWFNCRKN
Assay: MMP1 (Collagenase-1) inhibition, 14C collagen release
Settings: 35° C., 5 hours; read-out: MMP-1 inhibitory activity, IC50
pIC50: −log10 of the molar value.
property_name: pIC50

See these solved cases before continuing.
compound	property_name	experimental_value
CC(=O)Nc1cc([N+]#N)c(O)c2c1C(C)C1C(=C(O)C3(O)C(=O)C(C(N)=O)=C(O)C(N(C)C)C3C1O)C2=O (centres unmarked)	pIC50	3.24
CC(C)CN(C)c1ccc(O)c2c1C(C)C1C(=C(O)C3(O)C(=O)C(C(N)=O)=C(O)C(N(C)C)C3C1O)C2=O (centres unmarked)	pIC50	3.30
CC1c2c(N=[N+]=[N-])cc(C(C)(C)C)c(O)c2C(=O)C2=C(O)C3(O)C(=O)C(C(N)=O)=C(O)C(N(C)C)C3C(O)C21 (centres unmarked)	pIC50	3.42

1: CC1c2c([N+]#N)ccc(O)c2C(=O)C2=C(O)C3(O)C(=O)C(C(N)=O)=C(O)C(N(C)C)C3C(O)C21 (centres unmarked)
2: CN(C)c1cc(N=[N+]=[N-])c(O)c2c1CC1CC3C(N(C)C)C(O)=C(C(N)=O)C(=O)C3(O)C(O)=C1C2=O (centres unmarked)
3: CN(C)C1C(O)=C(C(N)=O)C(=O)C2(O)C(O)=C3C(=O)c4c(O)c(Br)cc(Br)c4CC3CC12 (centres unmarked)
Lookup: # desc sort on pIC50 across 3 compounds The labels, placed in the requested order, form the answer.
Found: 3, 1, 2
(3: 3.90, 1: 3.53, 2: 3.30)

I: CC(=O)Nc1cc([N+](=O)[O-])c(O)c2c1C(C)C1C(=C(O)C3(O)C(=O)C(C(N)=O)=C(O)C(N(C)C)C3C1O)C2=O (centres unmarked)
II: CC1c2cccc(O)c2C(=O)C2=C(O)C3(O)C(=O)C(C(N)=O)=C(O)C([N+](C)(C)C)C3C(O)C21.[I-] (centres unmarked)
Lookup: # query: argmin of pIC50 over I and II Please identify the chosen entry by its label.
Found: I

###

Target: Human recombinant MMP7 (Homo sapiens)
Sequence (P09237 95-267): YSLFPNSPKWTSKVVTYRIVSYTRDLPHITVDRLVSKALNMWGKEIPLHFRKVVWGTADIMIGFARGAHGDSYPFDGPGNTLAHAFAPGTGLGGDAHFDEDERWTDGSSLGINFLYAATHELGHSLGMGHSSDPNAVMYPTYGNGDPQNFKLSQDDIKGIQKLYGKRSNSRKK
Test: MMP7 (Matrilysin) inhibition, 14C casein release
Conditions: 37° C., 16 hours; read-out: MMP-7 inhibitory activity, IC50
Where a name gives a salt, the structure may show the parent alone.
property_name: IC50 (µM)

See these solved cases before continuing.
molecule	IC50 / µM
CC(=O)Nc1cc(N(C)C)c2c(c1O)C(=O)C1=C(O)C3(O)C(=O)C(C(N)=O)=C(O)C(N(C)C)C3CC1C2 (stereo not drawn)	388
CC1c2ccc([N+](=O)[O-])c(O)c2C(=O)C2=C(O)C3(O)C(=O)C(C(N)=O)=C(O)C(N(C)C)C3C(O)C21 (stereo not drawn)	815
CC1c2c(N(C)C)ccc(O)c2C(=O)C2=C(O)C3(O)C(=O)C(C(N)=O)=C(O)C(N(C)C)C3C(O)C21 (stereo not drawn)	716
CN(C)c1cc([N+]#N)c(O)c2c1CC1CC3C(N(C)C)C(O)=C(C(N)=O)C(=O)C3(O)C(O)=C1C2=O (stereo not drawn) [Compound 9, HCL]	507
CN(C)c1cc([N+](=O)[O-])c(O)c2c1CC1CC3C(N(C)C)C(O)=C(C(N)=O)C(=O)C3(O)C(O)=C1C2=O (stereo not drawn)	278
C[C@H]1c2c(N)ccc(O)c2C(=O)C2=C(O)[C@]3(O)C(=O)C(C(N)=O)=C(O)[C@@H](N(C)C)[C@@H]3[C@@H](O)[C@@H]21.O=S(=O)(O)O	503

1: CN(C)c1cc(N)c(O)c2c1CC1CC3C(N(C)C)C(O)=C(C(N)=O)C(=O)C3(O)C(O)=C1C2=O (stereo not drawn)
2: CC(=O)Nc1ccc2c(c1O)C(=O)C1=C(O)C3(O)C(=O)C(C(N)=O)=C(O)C(N(C)C)C3C(O)C1C2C (stereo not drawn)
Lookup: # query: argmin of IC50 over 1 and 2 Please identify the chosen entry by its label.
Found: 1
